Molecular target: human CYP24A1 (hCYP24A1) (Homo sapiens)
Sequence (Q07973 36-514): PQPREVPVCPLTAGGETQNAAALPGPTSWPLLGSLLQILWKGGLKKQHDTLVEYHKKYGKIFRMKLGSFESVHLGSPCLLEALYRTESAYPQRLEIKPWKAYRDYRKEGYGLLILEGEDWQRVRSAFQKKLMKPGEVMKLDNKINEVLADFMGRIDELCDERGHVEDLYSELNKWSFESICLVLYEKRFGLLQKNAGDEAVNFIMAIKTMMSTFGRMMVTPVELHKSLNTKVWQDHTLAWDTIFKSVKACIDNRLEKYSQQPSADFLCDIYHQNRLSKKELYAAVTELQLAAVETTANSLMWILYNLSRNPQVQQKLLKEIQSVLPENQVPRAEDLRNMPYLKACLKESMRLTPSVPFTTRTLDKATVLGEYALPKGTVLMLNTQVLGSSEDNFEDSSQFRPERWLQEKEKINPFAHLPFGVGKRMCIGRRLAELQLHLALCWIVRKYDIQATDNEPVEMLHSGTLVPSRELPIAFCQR
Assay: Spectral ligand binding assay with hCYP24A1
Settings: hCYP24A1 1 μM, no hAdx
pKd: −log10 of the molar value.
attribute measured: pKd

* C=C1/C(=C\C=C2/CCC[C@]3(C)[C@@H]([C@H](C)CCCC(C)C)CC[C@@H]23)C[C@@H](O)C[C@@H]1O | 6.40
